Data provenance: paper PMC5515408

Listed here are sequences together with their documented binding signal.
TEST_TARGET: MAX:MAX (p21) (human, UniProt P61244-2 1-151)
Sequence (P61244 other isoform, or with tags, fused parts or gaps): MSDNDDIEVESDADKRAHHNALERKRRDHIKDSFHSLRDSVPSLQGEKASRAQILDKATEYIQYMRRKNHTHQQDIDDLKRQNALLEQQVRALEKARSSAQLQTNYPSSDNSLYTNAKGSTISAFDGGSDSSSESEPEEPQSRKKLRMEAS
METHOD: protein-binding microarray (anti-MAX antibody); PBM: 15 mM Tris-HCl pH 7.5, 100 mM KCl, 0.075% NP40, 7.5 mM beta-mercaptoethanol, 375 ng/ul BSA, 8 ng/ul poly(dA-dT):(dA-dT), 550 ng complex, 60 min, room tempe; high values mean tight binding
ASSAY_CONTEXT: protein: recombinant; tags: 6xHis; chain copies: 2; label: 3' end of printed strand (linker) attached to glass slide; dsDNA, one strand shown
Whole data set: some 4,500 sequences, median “log2 normalized fluorescence” near -0.34, cut for the highest 2% near 3.3. This is one part of a sample in which the highest values are shown more often than they occur.

Examples from the recorded data:
CCGGCTGACACGTGGCCTTAATAGCTAAGATTACTATATCGACG :: 3.37 log2 normalized fluorescence
CCGGCTGACACGTGCACTTAATAGCTAAGATTACTATATCGACG :: 3.13 log2 normalized fluorescence
CCGGCTGACACGTTAGATTAATAGCTAAGATTACTATATCGACG :: 2.59 log2 normalized fluorescence

Asked: Given the sequence `CCGGCTGACTGGATGTATTAATAGCTAAGATTACTATATCGACG` , what is its reported binding signal?
Given back: -0.202 log2 normalized fluorescence
